Settings: in chloroform, 328.35 K
measured attribute: solubility (mole fraction)

| compound | obs value |
| --- | --- |
| O=P1(Oc2ccccc2)OCC2(CO1)COP(=O)(Oc1ccccc1)OC2 (stereo unspecified) | 0.0188 |

* * *

Conditions: in 1,4-dioxane, 308.17 K

| compound | solubility (mole fraction) |
| --- | --- |
| O=P1(O)OCC2(CO1)COP(=O)(O)OC2 (stereo unspecified) | 0.00035 |

* * *

Settings: in diethyl ether, 303.19 K
measured attribute: solubility (mole fraction)

| compound | measured attribute | obs value |
| --- | --- | --- |
| O=P1(O)OCC2(CO1)COP(=O)(O)OC2 (stereo unspecified) | solubility (mole fraction) | 0.00124 |
